Origin of values: patent US6706663B2

Test system: IPOHE (Ipomoea hederacea)
Test: Postemergence herbicidal evaluation
Assay type: in vivo, (L.) Jacq.
Details: rate 0.1250 kg/ha
# Lookup of reported Postemergence herbicidal rating, IPOHE keyed by entry

{"columns": ["Smiles input", "Postemergence herbicidal rating, IPOHE"],
 "data": [
  ["Cn1c(C(F)(F)F)cc(=O)n(-c2ccc3snc(-c4ccsc4)c3c2)c1=O", 9.0],
  ["Cc1csc(-c2nsc3ccc(-n4c(=O)cc(C(F)(F)F)n(C)c4=O)cc23)n1", 9.0],
  ["Cn1c(C(F)(F)F)cc(=O)n(-c2ccc3snc(-c4cccs4)c3c2)c1=O", 9.0],
  ["Cc1cccnc1-c1nsc2cc(F)c(N3C(=O)C4=C(CCCC4)C3=O)cc12", 9.0],
  ["Cc1ccc(-c2nsc3ccc(N4C(=O)C5=C(CCCC5)C4=O)cc23)s1", 9.0]
]}
